# tgt: Vitamin D3 receptor (Homo sapiens) (UniProt P11473)
# Sequence (whole entry): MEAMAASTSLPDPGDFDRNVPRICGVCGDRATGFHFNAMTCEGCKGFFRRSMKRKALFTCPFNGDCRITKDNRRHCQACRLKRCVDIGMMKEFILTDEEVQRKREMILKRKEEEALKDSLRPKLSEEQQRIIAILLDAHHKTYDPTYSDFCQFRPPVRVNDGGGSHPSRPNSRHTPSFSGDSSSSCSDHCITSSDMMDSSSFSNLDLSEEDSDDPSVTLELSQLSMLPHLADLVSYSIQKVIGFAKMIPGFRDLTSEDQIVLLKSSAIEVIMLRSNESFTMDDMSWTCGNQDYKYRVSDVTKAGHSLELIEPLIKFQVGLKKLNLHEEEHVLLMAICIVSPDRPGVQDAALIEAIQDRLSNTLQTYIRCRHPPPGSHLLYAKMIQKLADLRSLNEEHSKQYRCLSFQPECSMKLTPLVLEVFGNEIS
# assay_text: Binding affinity to full-length VDR (unknown origin) at 1 uM by fluorescence polarization assay relative to control
quantity_kind: Activity

Some solved entries appear below for comparison.
compound	reported_result
O=C(OC1CCCc2c(OCCCN3CCOCC3)cccc21)C1=C[C@@H](O)[C@@H](O)[C@H](O)C1 (stereo partly specified)	50%
CC(C)(O)CCCCOc1ccc(/C=C/C2=C[C@@H](O)[C@@H](O)[C@H](O)C2)c2c1CCCC2	21%
CC(C)(O)CCCOc1ccc(C#CC2=C[C@@H](O)[C@@H](O)[C@H](O)C2)c2c1CCCC2	15%
CCCCC(O)(CCCC)CCCOc1cccc2c1CCCC2OC(=O)C1=C[C@@H](O)[C@@H](O)[C@H](O)C1 (stereo partly specified)	34%

Proceed to the following item.
Challenge: Return Activity for the following compound: OC(COc1ccc(/C=C/C2=C[C@@H](O)[C@@H](O)[C@H](O)C2)c2c1CCCC2)c1ccccc1 (stereo partly specified)
Response given: 77%
